Reference source for all entries: patent US20130012432A1

Experiment: physchem
Details: pH 5.2, Solubility Conc.
Method: From a stock solution in vehicle, either H2O or 10 mM phosphate, containing 1 mg (as weighed) compound per ml, 8-11 aliquots are withdrawn and pH-adjusted individually with HCl/NaOH, to cover the whole pH range.
Positions of bridges follow the written chain, without caps; N, C: chain ends. Non-standard residues stand in square brackets, D forms with d. Residues, ends and D or L forms follow the SMILES beside them. *: point of attachment. Lys(CH2CO2H)2 = N[C@@H](CCCCN(CC(=O)O)CC(=O)O)C(=O)O; X1 = O=C(O)CCCCCCCCCCCCCCCCC(=O)NCCOCCOCCN*; Dab = NCC[C@H](N)C(=O)O
quantityMeasured: solubility

# input Find the recorded solubility belonging to CC(=O)N[C@H]1CCNC(=O)C[C@@H](C(=O)N2CCC[C@H]2C(=O)N2CCC[C@H]2C(=O)N[C@@H](CCCNC(=N)N)C(=O)N[C@@H](CCC(=O)O)C(=O)N[C@@H](CCCCN(CC(=O)O)CC(=O)O)C(=O)N[C@@H](CO)C(=O)N[C@@H](CO)C(=O)NCCOCCOCCNC(=O)CCCCCCCCCCCCCCCCC(=O)O)NC(=O)[C@H](Cc2c[nH]c3ccccc23)NC(=O)[C@H](CCCNC(=N)N)NC(=O)[C@@H](Cc2ccccc2)NC(=O)[C@H](Cc2c[nH]cn2)NC1=O [Example 9] (Ac-[Dab]H[dF]RWDPPRE[Lys(CH2CO2H)2]SS-X1; lactam 1-6) and report it.
# output 22 µM

---

Assay: physchem
Conditions: pH 8.2, Solubility Conc.
Procedure: From a stock solution in vehicle, either H2O or 10 mM phosphate, containing 1 mg (as weighed) compound per ml, 8-11 aliquots are withdrawn and pH-adjusted individually with HCl/NaOH, to cover the whole pH range.
Positions of bridges follow the written chain, without caps; N, C: chain ends. Non-standard residues stand in square brackets, D forms with d. Residues, ends and D or L forms follow the SMILES beside them. Groups on a side chain read outwards from the residue. *: point of attachment. Lys(CH2CO2H)2 = N[C@@H](CCCCN(CC(=O)O)CC(=O)O)C(=O)O; X1 = O=C(O)CCCCCCCCCCCCCCCCC(=O)NCCOCCOCCN*; C17 diacid = O=C(O)CCCCCCCCCCCCCCCC(=O)*; Orn = NCCC[C@H](N)C(=O)O; AEEA = NCCOCCOCC(=O)O
quantityMeasured: solubility
# output: numeric value plus its unit

molecule="CC(=O)N[C@H]1CCCCNC(=O)C[C@@H](C(=O)N2CCC[C@H]2C(=O)N2CCC[C@H]2C(=O)N[C@@H](Cc2c[nH]cn2)C(=O)N[C@@H](CCC(=O)O)C(=O)N[C@@H](CCCCN(CC(=O)O)CC(=O)O)C(=O)N[C@@H](CCCCNC(=O)COCCOCCNC(=O)CCCCCCCCCCCCCCCC(=O)O)C(N)=O)NC(=O)[C@H](Cc2c[nH]c3ccccc23)NC(=O)[C@H](CCCNC(=N)N)NC(=O)[C@@H](Cc2ccccc2)NC(=O)[C@H](Cc2c[nH]cn2)NC1=O [Example 44] (Ac-KH[dF]RWDPPHE[Lys(CH2CO2H)2]K([AEEA-C17 diacid])-NH2; lactam 1-6)" val="430 µM"

# input Find the recorded solubility belonging to CC(=O)N[C@H]1CCCCNC(=O)C[C@@H](C(=O)N2CCC[C@H]2C(=O)N[C@@H](CO)C(=O)N[C@@H](Cc2c[nH]cn2)C(=O)N[C@@H](CCC(=O)O)C(=O)N[C@@H](CCCCN(CC(=O)O)CC(=O)O)C(=O)N[C@@H](CCCCNC(=O)COCCOCCNC(=O)CCCCCCCCCCCCCCCC(=O)O)C(N)=O)NC(=O)[C@H](Cc2c[nH]c3ccccc23)NC(=O)[C@H](CCCNC(=N)N)NC(=O)[C@@H](Cc2ccccc2)NC(=O)[C@H](Cc2c[nH]cn2)NC1=O [Example 49] (Ac-KH[dF]RWDPSHE[Lys(CH2CO2H)2]K([AEEA-C17 diacid])-NH2; lactam 1-6) and report it.
# output 446 µM

# input Find the recorded solubility belonging to CC(=O)N[C@H]1CCCNC(=O)C[C@@H](C(=O)N2CCC[C@H]2C(=O)N2CCC[C@H]2C(=O)N[C@@H](CCCNC(=N)N)C(=O)N[C@@H](CCC(=O)O)C(=O)N[C@@H](CCCCN(CC(=O)O)CC(=O)O)C(=O)N[C@@H](CO)C(=O)N[C@@H](CO)C(=O)NCCOCCOCCNC(=O)CCCCCCCCCCCCCCCCC(=O)O)NC(=O)[C@H](Cc2c[nH]c3ccccc23)NC(=O)[C@H](CCCNC(=N)N)NC(=O)[C@@H](Cc2ccccc2)NC(=O)[C@H](Cc2c[nH]cn2)NC1=O [Example 50] (Ac-[Orn]H[dF]RWDPPRE[Lys(CH2CO2H)2]SS-X1; lactam 1-6) and report it.
# output 212 µM
